target: Serine/threonine-protein kinase B-raf (Homo sapiens); assay: Inhibition of BRAF (unknown origin)
Sequence (P15056 whole entry): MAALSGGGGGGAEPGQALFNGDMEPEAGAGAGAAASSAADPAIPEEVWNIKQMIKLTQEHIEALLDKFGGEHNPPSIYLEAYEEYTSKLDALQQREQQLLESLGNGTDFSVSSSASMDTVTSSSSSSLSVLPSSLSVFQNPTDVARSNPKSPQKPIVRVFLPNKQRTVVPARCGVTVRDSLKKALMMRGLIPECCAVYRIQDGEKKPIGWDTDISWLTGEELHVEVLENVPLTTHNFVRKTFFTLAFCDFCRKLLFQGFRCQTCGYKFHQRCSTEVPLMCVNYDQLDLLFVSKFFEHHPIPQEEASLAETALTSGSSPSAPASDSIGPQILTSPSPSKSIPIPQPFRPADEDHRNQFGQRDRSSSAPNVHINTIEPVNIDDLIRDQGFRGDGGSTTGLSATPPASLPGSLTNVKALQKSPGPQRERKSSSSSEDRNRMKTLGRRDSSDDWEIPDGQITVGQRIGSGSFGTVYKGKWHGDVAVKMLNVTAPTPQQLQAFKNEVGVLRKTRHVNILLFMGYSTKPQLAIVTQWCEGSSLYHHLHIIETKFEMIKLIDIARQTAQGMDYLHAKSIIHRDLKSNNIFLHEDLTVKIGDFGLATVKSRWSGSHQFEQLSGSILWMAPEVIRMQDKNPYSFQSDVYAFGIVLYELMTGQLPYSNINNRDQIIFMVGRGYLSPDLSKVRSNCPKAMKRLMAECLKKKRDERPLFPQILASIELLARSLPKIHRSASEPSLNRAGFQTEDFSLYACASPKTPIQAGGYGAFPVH
RECORDED METRIC: EC50 (nM)
Write the answer as a number in nM, unit excluded.

Field EC50 (system: Serine/threonine-protein kinase B-raf (Homo sapiens)) for entry COc1cncc(-c2cn(-c3c(F)ccc(NS(=O)(=O)C(C)C)c3F)nn2)c1 = 493

====

molecular target: Macrophage colony-stimulating factor 1 receptor (Homo sapiens, UniProt P07333); test: Inhibition of CSF1R (unknown origin)
Sequence (P07333 whole entry): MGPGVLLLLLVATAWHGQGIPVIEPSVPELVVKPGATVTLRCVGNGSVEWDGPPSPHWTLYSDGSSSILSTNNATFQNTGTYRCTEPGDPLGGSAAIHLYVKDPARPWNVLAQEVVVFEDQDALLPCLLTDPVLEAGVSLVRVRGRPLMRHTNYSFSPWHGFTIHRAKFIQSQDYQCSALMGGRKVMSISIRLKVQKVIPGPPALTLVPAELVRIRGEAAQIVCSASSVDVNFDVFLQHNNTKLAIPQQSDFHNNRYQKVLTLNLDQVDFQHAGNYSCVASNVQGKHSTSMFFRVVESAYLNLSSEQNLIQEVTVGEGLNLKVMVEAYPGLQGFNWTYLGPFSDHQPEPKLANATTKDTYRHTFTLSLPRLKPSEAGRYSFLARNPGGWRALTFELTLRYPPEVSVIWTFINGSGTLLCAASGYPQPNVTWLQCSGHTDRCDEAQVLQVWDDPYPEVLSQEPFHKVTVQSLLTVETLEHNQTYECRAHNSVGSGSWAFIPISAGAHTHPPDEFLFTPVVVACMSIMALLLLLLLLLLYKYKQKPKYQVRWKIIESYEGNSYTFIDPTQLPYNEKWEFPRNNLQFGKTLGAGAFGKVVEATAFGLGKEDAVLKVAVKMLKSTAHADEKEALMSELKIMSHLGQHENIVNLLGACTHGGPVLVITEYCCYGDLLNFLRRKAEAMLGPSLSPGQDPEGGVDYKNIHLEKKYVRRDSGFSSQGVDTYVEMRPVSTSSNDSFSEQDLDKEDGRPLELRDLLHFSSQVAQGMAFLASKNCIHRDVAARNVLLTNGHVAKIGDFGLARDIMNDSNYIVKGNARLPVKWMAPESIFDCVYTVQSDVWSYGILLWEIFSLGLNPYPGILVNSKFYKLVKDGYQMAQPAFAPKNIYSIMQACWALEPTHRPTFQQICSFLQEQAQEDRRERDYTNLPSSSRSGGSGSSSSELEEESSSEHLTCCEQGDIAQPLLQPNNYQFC
RECORDED METRIC: IC50 (nM)
Report only the number, with the unit nM understood.

The value of IC50 measured for the molecule O=C(NCc1ccc(C(F)(F)F)nc1)Nc1ccc(Oc2ncnc3[nH]ccc23)cc1 turned out to be 20
